Measured IC50 values are reported for all entries that follow.
Molecular target: FGFR2 (Homo sapiens, UniProt P21802)
Sequence (P21802 399-821 limits assumed): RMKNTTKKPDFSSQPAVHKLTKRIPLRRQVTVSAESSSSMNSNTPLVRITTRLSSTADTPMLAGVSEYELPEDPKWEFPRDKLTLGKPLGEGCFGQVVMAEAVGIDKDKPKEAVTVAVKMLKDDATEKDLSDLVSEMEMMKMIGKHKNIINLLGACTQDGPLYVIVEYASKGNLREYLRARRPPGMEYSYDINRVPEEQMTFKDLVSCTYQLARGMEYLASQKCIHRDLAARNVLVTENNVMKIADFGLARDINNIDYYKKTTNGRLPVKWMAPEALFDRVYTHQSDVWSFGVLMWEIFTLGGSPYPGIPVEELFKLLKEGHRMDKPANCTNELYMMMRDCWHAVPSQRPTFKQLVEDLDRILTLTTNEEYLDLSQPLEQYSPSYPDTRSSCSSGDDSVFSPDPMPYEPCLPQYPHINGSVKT
Assay: FGFR wild type enzyme assay (HTRF KinEASE-TK), FGFR2
Details: Enz FGFR2 (nM), FGFR2 wild type enzyme assay
Assay metric: IC50 (nM)

INSERT INTO assay_data (smiles_text, system_under_test, readout_value) VALUES
  ('N#Cc1ccccc1Sc1cc(-c2cnn(C(CO)CO)c2)cn2ncc(C#N)c12', 'FGFR2 (Homo sapiens, UniProt P21802)', 1),
  ('CC(=O)N1CCC[C@H](n2ncc(-c3cc(Sc4ccc(F)cc4C#N)c4c(C#N)cnn4c3)c2C)C1', 'FGFR2 (Homo sapiens, UniProt P21802)', 1),
  ('Cc1nn([C@H]2CCCNC2)cc1-c1cc(Sc2ncccc2F)c2c(C#N)cnn2c1', 'FGFR2 (Homo sapiens, UniProt P21802)', 7),
  ('CN1CCC[C@H](n2cc(-c3cc(Sc4ccccc4C#N)c4c(C#N)cnn4c3)cn2)C1', 'FGFR2 (Homo sapiens, UniProt P21802)', 1),
  ('Cc1c(-c2cc(Sc3ncccc3C#N)c3c(C#N)cnn3c2)cnn1[C@H]1CCCNC1', 'FGFR2 (Homo sapiens, UniProt P21802)', 1),
  ('CN1CCN(c2ccc(-c3cc(Sc4ccccc4C#N)c4c(C#N)cnn4c3)cn2)CC1', 'FGFR2 (Homo sapiens, UniProt P21802)', 0.4),
  ('N#Cc1ccccc1Sc1cc(-c2cn[nH]c2)cn2ncc(C#N)c12', 'FGFR2 (Homo sapiens, UniProt P21802)', 2),
  ('Cn1cc(-c2cc(Sc3ccccn3)c3c(C#N)cnn3c2)cn1', 'FGFR2 (Homo sapiens, UniProt P21802)', 6);
